FACs 10 ug/ml (percent gated) for assorted binders
- testedOn: T1, human CD38 on transiently transfected Expi293 cells (Origene #SC321273) (human, UniProt P28907 1-300)
- T1 construct: whole, on cells; also called Human (FACs)
- assaySummary: flow cytometry, transfected Expi293 cells;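 note: antibody binding to Expi293 cells transiently expressing human or murine CD38, antibodies applied at 10 ug/ml for 60 min on ice, read by flow cytometry as percent gated cells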
Use % as the unit, but write only the number.

40769p1.2.B10 (scFv, V domains shown, tested as scFv-Fc supernatant) VH: EVQLLESGGGLVQPGGSLRLSCPASGFDFSSYWMTWVRQAPGKGLEWVSTITDSGGRAWYADSVRGRFTISRDNSKNTLYLQMNSLRAEDTAVYYCARDTPKTYYYYAMDVWGQGTTVTV VL: QSALTQPPSASGTPGQRVTISCSGSSSNIQYSYVSWYQQLPGTAPKLLIYNNVQRPSGVPDRFSGSKSGTSASLAISGLQSEDEADYYCATWDESLLGLWVFGGGTKLTVL = 86.3

Would you kindly look at the next entry?
Name the recorded FACs 10 ug/ml (percent gated) for 40566p1.B11 (scFv, V domains shown, tested as scFv-Fc supernatant) VH: DVQLVESGGGLVRPGESLRLSCAASGFTFDNYDMTWVRQAPGEGLEWVSFISSRGTFTYYTDSVKGRFTISRDNSKNTLYLQMNSLRAEDTAIYYCAKDSGEYYFFDYWGLGTLVTVSS VL: EIVMTQSPATLSVSPGERATFSCRASQSVNSKLAWYQQKPGQAPRLLIYGASRRATGIPDRFSESGSGTEFTLTISSLQSEDFAVYYCQQYHDWPPLTFGGGTKVEIK .
6.05
